system: Danio rerio larvae (5 dpf); assay: difference in combined optomotor response to red, green and blue moving lines vs DMSO (percentage points); higher = stronger optomotor response than DMSO; conditions: 10 µM; exposure time 6 h
Reported difference values are given for each entry in this list.
Answer with a number only.

compound	resultNumber
Nc1ncnc2c1ncn2[C@@H]1O[C@H](CO)[C@@H](O)[C@H]1O	5.99

Now consider the entry below.
Looking for the measured difference of CCOC(=O)C1=C(C)NC(C)=C(C(=O)OC)C1c1cccc(Cl)c1Cl (racemic) [(±)-Felodipine] , can you help? -16.5

----------
Quick reference: difference in habituation to acoustic stimuli of the listed items.
test system: Danio rerio larvae (5 dpf); test: difference in habituation to acoustic stimuli vs DMSO (percentage points); higher = more habituation than DMSO; conditions: 10 µM; exposure time 6 h
Structures can show the parent of a compound that is named as a salt.
Number only, please.

Take a look at these entries with their results.
compound	resultNumber
Cc1ccc(Cl)c(Nc2ccccc2C(=O)O)c1Cl [Meclofenamate (sodium salt)]	-13.1
CN(C)[C@@H]1C(O)=C(C(N)=O)C(=O)[C@@]2(O)C(O)=C3C(=O)c4c(O)cccc4[C@@](C)(O)[C@H]3C[C@@H]12 [Tetracycline (hydrochloride)]	-0.0493
COC(=O)/C=C/C(=O)OC [Dimethyl fumarate]	-2.23
C=C1/C(=C\C=C2/CCC[C@]3(C)[C@@H]([C@H](C)CCCC(C)(C)O)CC[C@@H]23)C[C@@H](O)C[C@@H]1O [Calcitriol]	5.79
CCN(CC)C(=S)SSC(=S)N(CC)CC [Disulfiram]	-13

What value of difference in habituation to acoustic stimuli has been reported for the following compound? CCOc1ccc(Cc2cc([C@@H]3O[C@H](CO)[C@@H](O)[C@H](O)[C@H]3O)ccc2Cl)cc1 [Dapagliflozin] -5.36

Quick one: difference in habituation to acoustic stimuli of COC(=O)N[C@H](C(=O)N1CCC[C@H]1c1ncc(-c2ccc(-c3ccc(-c4cnc([C@@H]5CCCN5C(=O)[C@@H](NC(=O)OC)C(C)C)[nH]4)cc3)cc2)[nH]1)C(C)C [Daclatasvir] ? 0.308

----------
# Lookup of reported difference in startle response keyed by entry
system: Danio rerio larvae (5 dpf); assay: difference in startle response vs DMSO (percentage points); higher = stronger startle than DMSO; conditions: 10 µM; exposure time 6 h
Structures can show the parent of a compound that is named as a salt.
Lab note: record just the number, no unit beside it.

compound	difference in startle response
CCC(=O)O[C@]1(C(=O)SCF)[C@H](C)C[C@H]2[C@@H]3C[C@H](F)C4=CC(=O)C=C[C@]4(C)[C@@]3(F)[C@@H](O)C[C@@]21C [Fluticasone Propionate]	-3.21

Kindly state the measured difference in startle response obtained for CC(C)(C#N)c1cc(Cn2cncn2)cc(C(C)(C)C#N)c1 with Danio rerio larvae (5 dpf). -2.98

Provide value of difference in startle response for this record tested with Danio rerio larvae (5 dpf): Nc1ccc(S(=O)(=O)c2ccc(N)cc2)cc1 3.11

Observed difference in startle response on Danio rerio larvae (5 dpf) for Nc1nc(=O)c2nc(CNc3ccc(C(=O)N[C@@H](CCC(=O)O)C(=O)O)cc3)cnc2[nH]1 , please. -0.204

Query for Danio rerio larvae (5 dpf): what difference in startle response does the record show for Cc1ccc(C(=O)c2ccc(CC(=O)O)n2C)cc1 [Tolmetin (sodium salt hydrate)] ? 2.51

Could you share what difference in startle response was measured for CC[C@@H]([C@H](C)O)n1ncn(-c2ccc(N3CCN(c4ccc(OC[C@@H]5CO[C@@](Cn6cncn6)(c6ccc(F)cc6F)C5)cc4)CC3)cc2)c1=O , tested on Danio rerio larvae (5 dpf)? -3.5

----------
system: Danio rerio larvae (5 dpf); test: difference in startle response vs DMSO (percentage points); higher = stronger startle than DMSO; details: 10 µM; exposure time 6 h
Structures can show the parent of a compound that is named as a salt.
valueType: difference in startle response

Some molecules with recorded difference in startle response:
molecule	testTarget	difference in startle response
Nc1c(CC(=O)O)cccc1C(=O)c1ccc(Br)cc1 [Bromfenac (sodium salt)]	Danio rerio larvae (5 dpf)	-1.71
COc1ccccc1OCC(O)CN1CCN(CC(=O)Nc2c(C)cccc2C)CC1 (centres undefined) [Ranolazine (hydrochloride)]	Danio rerio larvae (5 dpf)	-5.16
CS(=O)(=O)CCNCc1ccc(-c2ccc3ncnc(Nc4ccc(OCc5cccc(F)c5)c(Cl)c4)c3c2)o1 [Lapatinib]	Danio rerio larvae (5 dpf)	0.335

Fill blank: measured difference in startle response of the molecule CCc1c(C)[nH]c2c1C(=O)C(CN1CCOCC1)CC2 (centres undefined) [Molindone (hydrochloride)] is ____. -3.27

----------
Listing of recorded difference in activity during first hour by entry.
tested on: Danio rerio larvae (5 dpf); test: difference in activity during first hour vs DMSO (percentage points); higher = more activity than DMSO; conditions: 10 µM; exposure time 6 h
Counter-ions that a name gives are not always drawn.
Please give only the number in your answer, with no unit.

molecule	testTarget	difference in activity during first hour
COc1cc(Cc2cnc(N)nc2N)cc(OC)c1OC	Danio rerio larvae (5 dpf)	12.5
CCCCC[C@](C)(O)/C=C/[C@@H]1[C@@H](C/C=C\CCCC(=O)O)[C@@H](O)C[C@H]1O [15(S)-15-methyl Prostaglandin F2α]	Danio rerio larvae (5 dpf)	22.8
CNS(=O)(=O)CCc1ccc2[nH]cc(C3CCN(C)CC3)c2c1 [Naratriptan (hydrochloride)]	Danio rerio larvae (5 dpf)	-1.59
CCC[C@@H]1C[C@@H](C(=O)N[C@@H]([C@H]2O[C@H](SC)[C@H](O)[C@@H](O)[C@H]2O)[C@H](C)Cl)N(C)C1	Danio rerio larvae (5 dpf)	-14.7
COC(=O)[C@H](c1ccccc1Cl)N1CCc2sccc2C1 (racemic) [(±)-Clopidogrel (hydrochloride)]	Danio rerio larvae (5 dpf)	-4.36
O=C1c2cccc3c2[C@H](CCC3)CN1[C@@H]1CN2CCC1CC2 [Palonosetron (hydrochloride)]	Danio rerio larvae (5 dpf)	19.7

Then this molecule:
I am curious: what difference in activity during first hour value has been reported for CC1(C)S[C@@H]2[C@H](NC(=O)COc3ccccc3)C(=O)N2[C@H]1C(=O)O [Penicillin V (potassium salt)] ? 11

----------
Listed below: difference in startle response values for each entry.
system: Danio rerio larvae (5 dpf); experiment: difference in startle response vs DMSO (percentage points); higher = stronger startle than DMSO; details: 10 µM; exposure time 6 h
Structures can show the parent of a compound that is named as a salt.
Just the number.

Solved entries (count: 10):
compound	difference in startle response
Nc1ccn([C@@H]2O[C@H](CO)[C@@H](O)[C@@H]2O)c(=O)n1	-0.992
COc1c(C)c2c(c(O)c1C/C=C(\C)CCC(=O)OCCN1CCOCC1)C(=O)OC2 [Mycophenolate Mofetil]	-4.66
Clc1ccc(COC(Cn2ccnc2)c2ccc(Cl)cc2Cl)c(Cl)c1 (stereo unspecified) [Miconazole (nitrate)]	-10.9
C#C[C@]1(O)CC[C@H]2[C@@H]3CCC4=CC(=O)CC[C@@H]4[C@H]3CC[C@@]21C	-3.95
CNS(=O)(=O)Cc1ccc2[nH]cc(CCN(C)C)c2c1 [Sumatriptan (succinate)]	3.38
Cc1nccn1CC1CCc2c(c3ccccc3n2C)C1=O (stereo unspecified) [Ondansetron (hydrochloride hydrate)]	-1.85
CCC[C@H](N[C@@H](C)C(=O)N1[C@H](C(=O)O)C[C@@H]2CCCC[C@@H]21)C(=O)OCC	3.45
COC(=O)C1=C(C)NC(C)=C(C(=O)OCC(C)C)C1c1ccccc1[N+](=O)[O-] (stereo unspecified)	-9.87
C=C1CC[C@H](O)C/C1=C/C=C1\CCC[C@]2(C)[C@@H]([C@H](C)/C=C/[C@H](C)C(C)C)CC[C@@H]12 [Vitamin D2]	-5.12
CN(C)c1cc(NC(=O)CNC(C)(C)C)c(O)c2c1C[C@H]1C[C@H]3[C@H](N(C)C)C(O)=C(C(N)=O)C(=O)[C@@]3(O)C(O)=C1C2=O	1.45

Look at this compound and give its reported difference in startle response. Clc1ccccc1C(c1ccccc1)(c1ccccc1)n1ccnc1 4.37

# input compound: Nc1nc(NC2CC2)c2ncn([C@H]3C=C[C@@H](CO)C3)c2n1 [Abacavir (sulfate)] ; wanted: its difference in startle response -0.154

So what does the record say about difference in startle response for C[N+]1(C)[C@@H]2CC[C@H]1C[C@@H](OC(=O)C(O)c1ccccc1)C2 (stereo partly specified) [Methylhomatropine (bromide)] ? 0.325

Given the entry CCc1cccc2c3c([nH]c12)C(CC)(CC(=O)O)OCC3 (stereo unspecified) , report its measured difference in startle response. 7.75

Consider the compound shown here: CCOC(=O)[C@H](CCc1ccccc1)N[C@@H](C)C(=O)N1Cc2ccccc2C[C@H]1C(=O)O [Quinapril (hydrochloride)] What is its recorded difference in startle response? -2.06

Consider the compound CN(C)c1ccc(O)c2c1C[C@H]1C[C@H]3[C@H](N(C)C)C(O)=C(C(N)=O)C(=O)[C@@]3(O)C(O)=C1C2=O [Minocycline (hydrochloride hydrate)] and give its measured difference in startle response. -2.06

Origin of values: the supplement of paper PMC10515830
